Source of measurements: patent US11667649B2

Measurement record for TRKA-wt kinase domain (Homo sapiens, UniProt P04629); quantity recorded: pKi.
pKi: −log10 of the molar value.

Reference set, count: 3
C[C@H]1Oc2cc(cnc2N)-c2c(cnn2CC2CC2)Cc2cc(C(F)(F)F)nn2-c2ccc(F)cc21 | 6.30 to 7.30
CCn1nc(OC)c2c1-c1cnc(N)c(c1)O[C@H](C)c1cc(F)ccc1-n1nc(C(F)F)cc1C2 | > 7.30
CCn1ncc2c1-c1cnc(N)c(c1)O[C@H](C)c1cc(F)ccc1-n1nccc1C2 | > 7.30

May I ask what pKi has been recorded for C[C@H]1Oc2cc(cnc2N)-c2c(cnn2C2CCC2)Cc2cnn(C)c2-c2ccc(F)cc21 ?
< 6.30

Param item: CC(C)n1nc2c(c1C#N)-c1cnc(N)c(c1)O[C@H](C)c1cc(F)ccc1-n1nccc1C2
> 7.30

Param item: C[C@H]1Oc2cc(cnc2N)-c2c(C#N)nn(C)c2Cc2csnc2-c2ccc(F)cc21
6.30 to 7.30

Param item: CCn1ncc2c1-c1cnc(N)c(c1)O[C@H](C)c1cc(F)ccc1-c1nn(C)c(OC)c1C2
> 7.30

Param item: CCn1ncc2c1-c1cnc(N)c(c1)OCc1cc(F)ccc1-c1nn(C)cc1C2
< 6.30

---

Measurement record for TRKA-wt kinase domain (Homo sapiens); quantity recorded: Ki.

Reference set, count: 10
CCn1ncc2c1-c1cnc(N)c(c1)O[C@H](C)c1cc(F)ccc1-n1ncc(C#N)c1C2 [Compound 47] | 50 to 500 nM
CCn1nc(Cl)c2c1-c1cnc(N)c(c1)O[C@H](C)c1cc(F)ccc1-c1nn(C)cc1C2 [Compound 73] | 50 to 500 nM
C[C@H]1Oc2cc(cnc2N)-c2c(cnn2C2COC2)Cc2cn(C)nc2-c2ccc(F)cc21 [Compound 139] | 50 to 500 nM
CCc1noc2c1-c1cnc(N)c(c1)O[C@H](C)c1cc(F)ccc1-c1nncn1C2 [Compound 120] | 50 to 500 nM
C[C@H]1Oc2cc(cnc2N)-c2c(C#N)ncn2Cc2scnc2-c2ccc(F)cc21 [Compound 64] | > 500 nM
C[C@H]1Oc2cc(cnc2N)-c2c(C#N)cnn2Cc2cn(C)nc2-c2ccc(F)cc21 [Compound 9] | > 500 nM
CCc1snc2c1-c1cnc(N)c(c1)O[C@H](C)c1cc(F)ccc1-c1nn(C)cc1C2 [Compound 88] | 50 to 500 nM
CCn1ncc2c1-c1cnc(N)c(c1)O[C@H](C)c1cc(F)ccc1-c1nn(C)cc1C2 [Compound 1] | < 50 nM
Nc1ncc2cc1OCc1cc(F)ccc1-n1nc(C(F)F)cc1Cc1cnn(CC3CC3)c1-2 [Compound 138] | > 500 nM
CCn1ncc2c1-c1cnc(N)c(c1)O[C@H](C)c1cc(F)ccc1-c1nccn1C2 [Compound 31] | < 50 nM

May I ask what Ki has been recorded for CCn1ncc2c1-c1cnc(N)c(c1)O[C@H](C)c1cc(F)ccc1-c1nn(C(F)F)cc1C2 [Compound 86] ?
> 500 nM

Param item: C[C@H]1Oc2cc(cnc2N)-c2c(C#N)ncn2Cc2cnccc2-c2ccc(F)cc21 [Compound 10]
> 500 nM

Param item: CCn1ncc2c1-c1cnc(N)c(c1)O[C@H](C)c1cc(F)ccc1-c1ncc(OC)cc1C2 [Compound 149]
< 50 nM

Param item: C[C@H]1Oc2cc(cnc2N)-c2c(CC(F)F)noc2Cc2cn(C)nc2-c2ccc(F)cc21 [Compound 85]
> 500 nM

Param item: C[C@H]1Oc2cc(cnc2N)-c2c(nnn2CC2CC2)Cc2cc(C(F)(F)F)nn2-c2ccc(F)cc21 [Compound 128]
50 to 500 nM

Param item: CCn1ncc2c1-c1cnc(N)c(c1)OC(C)c1cc(F)ccc1-c1ncncc1C2 (stereo not shown) [Compound 42]
50 to 500 nM

---

Below, each entry is listed alongside its reported Ki.
biological target: ALK L1196M/G1202R kinase domain (Homo sapiens, UniProt Q9UM73, G1202R/L1196M); construct: TRKA-wt (1 nM, BPS Bio, 40280) kinase domains in buffer; experiment: Biochemical kinase assay, ALK L1196M/G1202R; conditions: 2 mM ATP substrate solution, read-out: Ki^app ALK-L1196M-G1202R
Sequence (Q9UM73 1116-1392 L1196M/G1202R limits assumed): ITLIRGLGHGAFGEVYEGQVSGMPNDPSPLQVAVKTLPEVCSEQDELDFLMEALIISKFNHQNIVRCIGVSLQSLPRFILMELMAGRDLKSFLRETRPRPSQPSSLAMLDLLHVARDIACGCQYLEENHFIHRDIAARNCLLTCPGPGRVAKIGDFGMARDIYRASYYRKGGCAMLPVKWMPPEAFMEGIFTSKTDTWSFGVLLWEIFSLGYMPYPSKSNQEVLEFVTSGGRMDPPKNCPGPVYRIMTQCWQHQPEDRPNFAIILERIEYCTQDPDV

Reference set, count: 3
CCn1ncc2c1-c1ccc(F)cc1C(C)Oc1nc(cnc1N)-c1c(cnn1C)C2 (stereo not shown) | 50 to 500 nM
C[C@H]1Oc2cc(cnc2N)-c2c(C#N)ncn2Cc2scnc2-c2ccc(F)cc21 | < 50 nM
COc1cc2n(n1)-c1ccc(F)cc1[C@@H](C)Oc1cc(cnc1N)-c1c(nnn1CC1CC1)C2 | < 50 nM

May I ask what Ki has been recorded for C[C@H]1Oc2cc(cnc2N)-c2c(C#N)nnn2Cc2cccnc2-c2ccc(F)cc21 ?
50 to 500 nM

Param item: CCc1nn(C)c2c1-c1cnc(N)c(c1)OCc1cc(F)ccc1-c1nn(C)cc1C2
< 50 nM

Param item: CCc1snc2c1-c1cnc(N)c(c1)O[C@H](C)c1cc(F)ccc1-c1nn(C)cc1C2
< 50 nM

Param item: Cc1nc2c(s1)Cn1ncc(C#N)c1-c1cnc(N)c(c1)O[C@H](C)c1cc(F)ccc1-2
< 50 nM

---

molecular target: ROS1-G2032R kinase domain (Homo sapiens, UniProt P08922, G2032R); construct: TRKA-wt (1 nM, BPS Bio, 40280) kinase domains in buffer; test: Biochemical kinase assay, ROS1-G2032R; conditions: 2 mM ATP substrate solution, read-out: Ki^app ROS1-G2032R
Sequence (P08922 1945-2222 G2032R limits assumed): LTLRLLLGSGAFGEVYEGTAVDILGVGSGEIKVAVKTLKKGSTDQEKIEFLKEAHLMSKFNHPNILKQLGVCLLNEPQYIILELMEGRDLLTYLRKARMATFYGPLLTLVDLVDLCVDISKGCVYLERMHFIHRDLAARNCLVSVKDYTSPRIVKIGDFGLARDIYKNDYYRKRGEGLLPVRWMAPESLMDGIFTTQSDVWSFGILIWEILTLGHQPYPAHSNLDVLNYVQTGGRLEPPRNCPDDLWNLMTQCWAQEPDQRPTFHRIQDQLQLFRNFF
test_readout: Ki

Reference set, count: 6
C[C@H]1Oc2cc(cnc2N)-c2c(C(F)F)cnn2Cc2cc(F)cnc2-c2ccc(F)cc21 | 0.05 to 0.5 µM
CCn1ncc2c1-c1cnc(N)c(c1)O[C@H](C)c1cc(F)ccc1-c1nc(OC)ccc1C2 | < 0.05 µM
CCn1ncc2c1-c1cnc(N)c(c1)OCc1cc(F)ccc1-n1nccc1C2 | < 0.05 µM
CCn1ncc2c1-c1cnc(N)c(c1)O[C@H](C)c1cc(F)ccc1-c1nn(C)c(C)c1C2 | < 0.05 µM
CCn1ncc2c1-c1cnc(N)c(c1)O[C@H](C)c1cc(F)ccc1-n1nc(Br)cc1C2 | < 0.05 µM
CCc1nsc2c1-c1cnc(N)c(c1)O[C@H](C)c1cc(F)ccc1-c1nn(C)cc1C2 | < 0.05 µM

May I ask what Ki has been recorded for CC(C)n1nc2c(c1C#N)-c1cnc(N)c(c1)O[C@H](C)c1cc(F)ccc1-n1nccc1C2 ?
> 0.5 µM

Param item: CCn1ncc2c1-c1cnc(N)c(c1)O[C@H](C)c1cc(F)ccc1-c1ncoc1C2
< 0.05 µM

Param item: Cc1nc2c(s1)Cn1cnc(C#N)c1-c1cnc(N)c(c1)O[C@H](C)c1cc(F)ccc1-2
< 0.05 µM

Param item: CCn1ncc2c1-c1cnc(N)c(c1)OC(C)c1cc(F)ccc1-n1cncc1C2 (stereo not shown)
< 0.05 µM

Param item: C[C@H]1Oc2cc(cnc2N)-c2c(nn(C)c2C#N)Cc2ccnn2-c2ccc(F)cc21
< 0.05 µM

Param item: CC1Oc2cc(cnc2N)-c2c(C#N)cnn2Cc2cnn(C)c2-c2ccc(F)cc21 (stereo not shown)
0.05 to 0.5 µM

Param item: C[C@H]1Oc2cc(cnc2N)-c2c(cnn2CC2CC2)Cc2cn(C)nc2-c2ccc(F)cc21
< 0.05 µM

Param item: C[C@H]1Oc2cc(cnc2N)-c2c(C#N)nnn2Cc2cccnc2-c2ccc(F)cc21
0.05 to 0.5 µM

Param item: Cc1cc2n(n1)-c1ccc(F)cc1[C@@H](C)Oc1cc(cnc1N)-c1c(C#N)ncn1C2
> 0.5 µM

Param item: CCn1ncc2c1-c1cnc(N)c(c1)OCc1cc(F)ccc1-n1nc(Cl)cc1C2
< 0.05 µM

---

Below, each entry is listed alongside its reported Ki.
molecular target: TRKA-wt kinase domain (Homo sapiens); construct: TRKA-wt (1 nM, BPS Bio, 40280) kinase domains in buffer; purchased BPS Bio 40280; experiment: Biochemical kinase assay, TRKA-wt; conditions: 2 mM ATP substrate solution, read-out: Ki^app TRKA-wt
Sequence (P04629 510-781 limits assumed): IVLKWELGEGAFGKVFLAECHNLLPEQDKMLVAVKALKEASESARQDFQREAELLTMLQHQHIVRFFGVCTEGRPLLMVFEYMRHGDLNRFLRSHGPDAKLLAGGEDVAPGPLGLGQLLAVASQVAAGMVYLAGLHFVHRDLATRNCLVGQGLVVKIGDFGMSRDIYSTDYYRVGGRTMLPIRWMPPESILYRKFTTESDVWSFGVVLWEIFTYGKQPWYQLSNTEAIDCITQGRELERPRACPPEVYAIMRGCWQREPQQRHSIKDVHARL

Reference set, count: 6
CCn1ncc2c1-c1cnc(N)c(c1)O[C@H](C)c1cc(F)ccc1-n1nc(F)cc1C2 [Compound 71] | < 50 nM
C[C@H]1Oc2cc(cnc2N)-c2c(cnn2CC2CC2)Cc2cn(C(F)F)nc2-c2ccc(F)cc21 [Compound 160] | > 500 nM
CCn1cc2c(n1)-c1ccc(F)cc1[C@@H](C)Oc1cc(cnc1N)-c1c(cnn1CC1CC1)C2 [Compound 140] | 50 to 500 nM
C[C@H]1Oc2cc(cnc2N)-c2c(C#N)nn(C)c2Cc2cc(Cl)nn2-c2ccc(F)cc21 [Compound 103] | 50 to 500 nM
CCn1ncc2c1-c1cnc(N)c(c1)O[C@H](C)c1cc(F)ccc1-c1nc(C)cn1C2 [Compound 45] | < 50 nM
C[C@H]1Oc2cc(cnc2N)-c2c(nn(C)c2C#N)Cc2ccnn2-c2ccc(F)cc21 [Compound 169] | < 50 nM

Consider the additional molecule presented here.
Observed Ki on TRKA-wt kinase domain (Homo sapiens) for C[C@H]1Oc2cc(cnc2N)-c2c(cnn2CC2CC2)Cc2cc(C(F)F)nn2-c2ccc(F)cc21 [Compound 130] , please.
50 to 500 nM
